STUDY SYSTEM: KRAS G12S (Homo sapiens, UniProt P01116+P62937, G12S)
Sequence (P01116 1-169 isoform P01116-2 G12S limits assumed): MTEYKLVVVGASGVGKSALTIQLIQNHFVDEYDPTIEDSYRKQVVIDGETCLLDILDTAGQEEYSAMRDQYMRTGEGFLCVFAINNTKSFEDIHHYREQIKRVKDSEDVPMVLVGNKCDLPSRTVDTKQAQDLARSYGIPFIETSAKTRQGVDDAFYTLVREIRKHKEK
Sequence (P62937 whole entry): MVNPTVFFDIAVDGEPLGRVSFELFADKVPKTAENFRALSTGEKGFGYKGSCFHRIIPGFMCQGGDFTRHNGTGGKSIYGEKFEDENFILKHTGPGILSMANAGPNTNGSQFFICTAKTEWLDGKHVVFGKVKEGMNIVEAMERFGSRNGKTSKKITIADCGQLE
ASSAY REMARKS: Ras-Raf disruption / FRET / MOA assay (BRAF RBD)
Type: biochemical
EXPERIMENTAL CONTEXT: Ras-Raf disruption, with Cyclophilin A; read-out: KRAS G12S FRET data IC50
pIC50: −log10 of the molar value.
VALUE TYPE: pIC50

pIC50 for CCn1c(-c2cccnc2[C@H](C)OC)c2c3cc(ccc31)-c1csc(n1)C[C@H](NC(=O)[C@H](C(C)C)N(C)C(=O)N1CCN(C(=O)[C@H]3CN3)[C@H](C)C1)C(=O)N1CCC[C@H](N1)C(=O)OCC(C)(C)C2 [Example 299] ?
6.00 to 7.00

Also need CCn1c(-c2cccnc2[C@H](C)OC)c2c3cc(ccc31)-c1csc(n1)C[C@H](NC(=O)[C@H](C(C)C)N(C)C(=O)N(C)[C@H]1CCCN(C(=O)[C@H]3CN3)C1)C(=O)N1CCC[C@H](N1)C(=O)OCC(C)(C)C2 (atropisomer, axis not shown) [Example 295] , thanks.
5.00 to 6.00

Also need CCn1c(-c2cccnc2[C@H](C)OC)c2c3cc(ccc31)-c1cc(O)cc(c1)C[C@H](NC(=O)[C@H](C(C)C)N(C)C(=O)CN(C)S(=O)(=O)[C@@H]1CN1C)C(=O)N1CCC[C@H](N1)C(=O)OCC(C)(C)C2 (single isomer, unassigned) [Example 92] , thanks.
7.00 to 8.00

Also need CCn1c(-c2cnccc2COC)c2c3cc(ccc31)-c1cccc(c1)C[C@H](NC(=O)[C@H](C(C)C)N(C)C(=O)CC(C)(C)N=C=Nc1ccc(OC)cc1)C(=O)N1CCC[C@H](N1)C(=O)OCC(C)(C)C2 [64 A and B] , thanks.
< 5.00

Also need CCn1c(-c2cnccc2COC)c2c3cc(ccc31)-c1cccc(c1)C[C@H](NC(=O)[C@H](C(C)C)N(C)C(=O)CCN=C=NC1(COC)CC1)C(=O)N1CCC[C@H](N1)C(=O)OCC(C)(C)C2 [72 A and B] , thanks.
< 5.00

Also need CCn1c(-c2cccnc2[C@H](C)OC)c2c3cc(ccc31)-c1cc(O)cc(c1)C[C@H](NC(=O)[C@H](C(C)C)N(C)C(=O)N1CC[C@H](N(C)C(=O)[C@H]3CN3)C1)C(=O)N1CCC[C@H](N1)C(=O)OCC(C)(C)C2 (atropisomer, axis not shown) [Example 254] , thanks.
6.00 to 7.00

Also need CCn1c(-c2cccnc2[C@H](C)OC)c2c3cc(ccc31)-c1cc(O)cc(c1)C[C@H](NC(=O)[C@H](C(C)C)N(C)C(=O)N(C)CCN(C)C(=O)[C@H]1CN1)C(=O)N1CCC[C@H](N1)C(=O)OCC(C)(C)C2 (atropisomer, axis not shown) [Example 204] , thanks.
7.00 to 8.00

Also need CCn1c(-c2cccnc2[C@H](C)OC)c2c3cc(ccc31)-c1cc(O)cc(c1)C[C@H](NC(=O)[C@H](C(C)C)N(C)C(=O)[C@H]1CCN(S(=O)(=O)[C@H]3CN3C)C1)C(=O)N1CCC[C@H](N1)C(=O)OCC(C)(C)C2 (single isomer, unassigned) [Example 57] , thanks.
6.00 to 7.00

Also need CCn1c(-c2cccnc2[C@H](C)OC)c2c3cc(ccc31)-c1cc(O)cc(c1)C[C@H](NC(=O)[C@H](C(C)C)N(C)C(=O)[C@H]1CCN(S(=O)(=O)[C@@H]3CN3C)C1)C(=O)N1CCC[C@H](N1)C(=O)OCC(C)(C)C2 (single isomer, unassigned) [Example 56] , thanks.
6.00 to 7.00

Also need CCn1c(-c2cccnc2[C@H](C)OC)c2c3cc(ccc31)-c1cc(O)cc(c1)C[C@H](NC(=O)[C@H](C(C)C)N(C)C(=O)c1ccc([C@@H]3CN3)nc1)C(=O)N1CCC[C@H](N1)C(=O)OCC(C)(C)C2 [Example 87] , thanks.
6.00 to 7.00

Also need CCn1c(-c2cccnc2[C@H](C)OC)c2c3cc(ccc31)-c1cc(O)cc(c1)C[C@H](NC(=O)[C@H](C(C)C)N(C)C(=O)C1CN(S(=O)(=O)[C@@H]3CN3C)C1)C(=O)N1CCC[C@H](N1)C(=O)OCC(C)(C)C2 (single isomer, unassigned) [Example 118] , thanks.
6.00 to 7.00

Also need CCn1c(-c2cccnc2[C@H](C)OC)c2c3cc(ccc31)-c1cc(O)cc(c1)C[C@H](NC(=O)[C@H](C(C)C)N(C)C(=O)C1CCN(S(=O)(=O)[C@@H]3CN3C)CC1)C(=O)N1CCC[C@H](N1)C(=O)OCC(C)(C)C2 (single isomer, unassigned) [Example 119] , thanks.
6.00 to 7.00

Also need CCn1c(-c2cccnc2[C@H](C)OC)c2c3cc(ccc31)-c1cc(O)cc(c1)C[C@H](NC(=O)[C@H](C(C)C)N(C)C(=O)CN(C)S(=O)(=O)[C@H]1CN1C)C(=O)N1CCC[C@H](N1)C(=O)OCC(C)(C)C2 (single isomer, unassigned) [Example 91] , thanks.
7.00 to 8.00

Also need CCn1c(-c2cccnc2[C@H](C)OC)c2c3cc(ccc31)-c1cccc(c1)C[C@H](NC(=O)[C@H](C(C)C)N(C)C(=O)CCN=C=NCCOC)C(=O)N1CCC[C@H](N1)C(=O)OCC(C)(C)C2 [Example 74] , thanks.
5.00 to 6.00

Also need CCn1c(-c2cccnc2[C@H](C)OC)c2c3cc(ccc31)-c1cc(O)cc(c1)C[C@H](NC(=O)[C@H](C(C)C)N(C)C(=O)N1CC[C@@H](N(C)C(=O)[C@@H]3CN3)C1)C(=O)N1CCC[C@H](N1)C(=O)OCC(C)(C)C2 (atropisomer, axis not shown) [Example 253] , thanks.
6.00 to 7.00
